- target.or.system: CETP (Homo sapiens, UniProt P11597)
- Sequence (P11597 18-493): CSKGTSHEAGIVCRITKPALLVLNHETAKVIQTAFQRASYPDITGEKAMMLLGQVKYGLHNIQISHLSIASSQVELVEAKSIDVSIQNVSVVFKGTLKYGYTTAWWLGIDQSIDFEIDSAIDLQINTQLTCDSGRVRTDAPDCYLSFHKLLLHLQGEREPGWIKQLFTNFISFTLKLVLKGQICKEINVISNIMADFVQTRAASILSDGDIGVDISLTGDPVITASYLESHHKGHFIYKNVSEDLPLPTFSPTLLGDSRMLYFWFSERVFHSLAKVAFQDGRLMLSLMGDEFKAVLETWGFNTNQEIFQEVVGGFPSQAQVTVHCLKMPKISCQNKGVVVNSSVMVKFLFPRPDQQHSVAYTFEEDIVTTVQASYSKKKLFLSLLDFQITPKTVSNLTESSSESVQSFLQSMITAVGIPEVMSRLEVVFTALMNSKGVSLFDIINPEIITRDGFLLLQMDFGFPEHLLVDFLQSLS
- assay.method.text: Inhibitory activity against CETP in human plasma (Roar CETP activity kit, fluorescence)
- condition.label: plasma from healthy men diluted 1:10 in assay buffer, 37° C., 3 hrs, fluorescence 465/535 nm; read-out: IC50, Inhibition of CETP Activity in Human Plasma
measurement.name: IC50 (nM)

Consider the worked cases shown below.
compound | reading.unit | IC50
C[C@H]1[C@@H](c2cc(C(F)(F)F)cc(C(F)(F)F)c2)OC(=O)N1Cc1cc(C(F)(F)F)cnc1N(C)C1CCCOCC1 (stereo partly drawn) | nM | 59
CCN(C[C@H]1CC[C@H](CC(=O)O)CC1)c1ncc(-c2cccn2C)nc1CN1C(=O)OC(c2cc(C(F)(F)F)cc(C(F)(F)F)c2)[C@@H]1C (stereo partly drawn) | nM | 3.8
CCN(c1ncc(-c2cccs2)cc1CN1C(=O)O[C@H](c2cc(C(F)(F)F)cc(C(F)(F)F)c2)[C@@H]1C)C1CCCCC1 | nM | 22

[a] CCN(c1ncc(C(F)(F)F)cc1CN1C(=O)O[C@H](c2cc(C(F)(F)F)cc(C(F)(F)F)c2)[C@@H]1C)C1CC[S+]([O-])CC1 (stereo partly drawn)
[b] CCN(c1ncc(C(F)(F)F)cc1CN1C(=O)O[C@H](c2cc(C(F)(F)F)cc(C(F)(F)F)c2)[C@@H]1C)C1CCN(C(C)=O)CC1
[Q] Could you kindly indicate whether a or b has the higher IC50 value? // return label of chosen record
[A] a
(a: 100 nM, b: 39.9 nM)

====

- target.or.system: CETP (Homo sapiens, UniProt P11597)
- Sequence (P11597 18-493): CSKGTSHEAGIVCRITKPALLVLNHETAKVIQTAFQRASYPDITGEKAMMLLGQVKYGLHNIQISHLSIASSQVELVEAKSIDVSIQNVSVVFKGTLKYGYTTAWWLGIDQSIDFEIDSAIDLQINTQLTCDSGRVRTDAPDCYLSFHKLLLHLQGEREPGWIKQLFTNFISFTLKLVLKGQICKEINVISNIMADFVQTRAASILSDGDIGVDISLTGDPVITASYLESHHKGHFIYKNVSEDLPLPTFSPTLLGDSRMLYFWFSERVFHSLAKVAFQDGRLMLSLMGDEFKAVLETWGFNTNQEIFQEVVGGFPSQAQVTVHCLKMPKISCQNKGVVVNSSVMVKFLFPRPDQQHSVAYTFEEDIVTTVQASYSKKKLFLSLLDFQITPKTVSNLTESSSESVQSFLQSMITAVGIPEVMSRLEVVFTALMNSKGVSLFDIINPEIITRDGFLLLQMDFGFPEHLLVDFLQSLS
- assay.method.text: Inhibitory activity against CETP in human plasma (Roar CETP activity kit, fluorescence)
- condition.label: plasma from healthy men diluted 1:10 in assay buffer, 37° C., 3 hrs, fluorescence 465/535 nm; read-out: IC50, Inhibition of CETP Activity in Human Plasma
measurement.name: IC50 (µM)

[A] CCN(c1ncc(-c2cn[nH]c2)cc1CN1C(=O)O[C@H](c2cc(C(F)(F)F)cc(C(F)(F)F)c2)[C@@H]1C)C1CCCCC1
[B] CCN(c1ncc(-c2cnn(C)c2)cc1CN1C(=O)O[C@H](c2cc(C(F)(F)F)cc(C(F)(F)F)c2)[C@@H]1C)C1CCCCC1
[C] CCN(CC1CCC(CC(=O)O)CC1)c1ncc(-c2ccnn2C)nc1CN1C(=O)OC(c2cc(C(F)(F)F)cc(C(F)(F)F)c2)C1C (stereo not drawn)
[D] CCCCN(c1ncc(C(F)(F)F)cc1CN1C(=O)O[C@H](c2cc(C(F)(F)F)cc(C(F)(F)F)c2)[C@@H]1C)C1CCOCC1
[E] CCN(c1ncc(-c2ccnn2C)cc1CN1C(=O)O[C@H](c2cc(C(F)(F)F)cc(C(F)(F)F)c2)[C@@H]1C)C1CCCCC1
[Q] Put the above molecules in order of rising IC50, beginning with the smallest. Output the labels ranked as instructed.
[A] E, C, D, B, A
(E: 0.0057 µM, C: 0.0303 µM, D: 0.068 µM, B: 0.151 µM, A: 0.334 µM)

[1] CCN(c1ncc(C(F)(F)F)cc1CN1C(=O)O[C@H](c2cc(C(F)(F)F)cc(C(F)(F)F)c2)[C@@H]1C)C1CCN(C)CC1
[2] CCN(c1ncc(C(F)(F)F)cc1CN1C(=O)O[C@H](c2cc(C(F)(F)F)cc(C(F)(F)F)c2)[C@@H]1C)C1CCN(C(=O)OC)CC1
[Q] Look at 1 and 2 . Which one has the lower recorded IC50 number? // return label of chosen record
[A] 2

[A] CCN(c1ncc(C(F)(F)F)cc1CN1C(=O)O[C@H](c2cc(C(F)(F)F)cc(C(F)(F)F)c2)[C@@H]1C)C1CCN(C(=O)N(C)C)CC1
[B] CCN(C[C@H]1CC[C@H](CC(=O)O)CC1)c1ncc(-c2c(C)noc2C)nc1CN1C(=O)OC(c2cc(C(F)(F)F)cc(C(F)(F)F)c2)[C@@H]1C (stereo partly drawn)
[C] CCN(c1ncc(-c2c(C)noc2C)nc1CN1C(=O)O[C@H](c2cc(C(F)(F)F)cc(C(F)(F)F)c2)[C@@H]1C)C1CCCCC1
[D] CCN(c1ncc(C(F)(F)F)cc1CN1C(=O)O[C@H](c2cc(C(F)(F)F)cc(C(F)(F)F)c2)[C@@H]1C)C1CCOCC1
[Q] Ascending by IC50, please. Output the labels ranked as instructed.
[A] B, C, D, A
(B: 0.00065 µM, C: 0.002 µM, D: 0.0063 µM, A: 0.498 µM)

The reported measurements were obtained from patent US9533977B2.
